testedSystem: HO-2 (rat brain) (Rattus norvegicus, UniProt P23711)
Construct: brain microsomes were used as a source of HO-2; from tissue; host or cells: brain microsomal fraction of adult male Sprague-Dawley rats
Sequence (P23711 whole entry): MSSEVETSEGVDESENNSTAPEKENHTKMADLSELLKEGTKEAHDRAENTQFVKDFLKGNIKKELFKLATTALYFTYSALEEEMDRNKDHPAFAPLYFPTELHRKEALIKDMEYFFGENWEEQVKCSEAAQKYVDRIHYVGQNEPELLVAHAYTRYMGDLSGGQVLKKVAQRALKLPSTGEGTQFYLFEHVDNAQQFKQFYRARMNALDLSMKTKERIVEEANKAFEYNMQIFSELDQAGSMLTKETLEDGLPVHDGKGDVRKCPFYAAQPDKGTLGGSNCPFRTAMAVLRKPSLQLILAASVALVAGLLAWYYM
protocolNotes: HO enzymatic activity in rat brain microsomal fraction (CO formed from methemalbumin, gas chromatography)
Format: biochemical
experimentalConditions: rat brain microsomes; average ± standard deviation of replicate experiments; read-out: IC50 HO-2 (rat brain)/μM
Where a name gives a salt, the structure may show the parent alone.
Entries annotated with measured IC50
observationType: IC50

compound | observationType | measuredValue
Brc1ccc(C2(Cn3cncn3)OCCO2)cc1 | IC50 | > 100 µM
c1ccc(CCn2ccnc2)cc1 [1-Phenethyl-1H-imidazole] | IC50 | > 100 µM
O=C(Cn1ccnc1)c1ccc(F)cc1 [hydrochloride] | IC50 | 35 µM
CS(=O)(=O)c1nnnn1CC(=O)CCc1ccccc1 | IC50 | > 100 µM
c1ccc(-c2ccc(C3(Cn4ccnc4)OCCO3)cc2)cc1 [hydrochloride] | IC50 | > 100 µM
c1ccc2[nH]c(NC3CCNCC3)nc2c1 | IC50 | > 100 µM
O=C(Cn1ccnc1)c1ccc(OCc2ccccc2)cc1 | IC50 | > 100 µM
O=C(/C(=N/O)n1ccnc1)c1ccc(Cl)cc1 | IC50 | 103 µM
O=C(CCc1ccccc1)Cn1ccnn1 | IC50 | > 100 µM
O=C(Cn1cncn1)c1ccc(Cl)cc1Cl | IC50 | > 100 µM
O=C(Cn1ccnc1)c1cccs1 | IC50 | > 100 µM
CSc1ncnn1CC(=O)CCc1ccccc1 [hydrochloride] | IC50 | > 100 µM
O=C(CCc1ccccc1)Cn1nc(Br)nc1Br | IC50 | > 100 µM
Nc1ccc(OCC2CO[C@@](CCc3ccc(Cl)cc3)(Cn3ccnc3)O2)cc1 (stereo in doubt) [dihydrochloride] | IC50 | 13 µM
Cc1nccn1CC(=O)CCc1ccccc1 [hydrochloride] | IC50 | > 100 µM
c1ccc(OCCn2ccnc2)cc1 [hydrochloride] | IC50 | > 100 µM
OC(Cn1ccnc1)c1ccc(-c2ccc(Br)cc2)cc1 (racemic) [drawing 342] | IC50 | > 100 µM
Clc1ccc(CC[C@@]2(Cn3ccnc3)OC[C@@H](CSc3ccc4ccccc4c3)O2)cc1 [hydrochloride] | IC50 | 30 µM
O=C(Cn1cncn1)c1ccc2ccccc2c1 [hydrochloride] | IC50 | 42 µM
c1cn(CCCCCCCCCCCCn2ccnc2)cn1 [dihydrochloride] | IC50 | ~9 µM
O=C(CCc1ccccc1)Cn1nc2ccccc2n1 | IC50 | > 100 µM
c1ccc(SCCCCn2ccnc2)cc1 [hydrochloride] | IC50 | 5 µM
O=C(Cn1cncn1)c1ccc(Cl)c(Cl)c1 [hydrochloride] | IC50 | > 100 µM
